Hey, just so you know, these numbers are from patent US9840509B2.

target: CYP 3A4 (Homo sapiens, UniProt P08684); construct: from tissue; host or cells: human liver microsomes; test: CYP inhibition in human liver microsomes, 3A4; assay type: in vitro ADME; conditions: pH 7.4, @ 10 μM concn
Sequence (P08684 whole entry): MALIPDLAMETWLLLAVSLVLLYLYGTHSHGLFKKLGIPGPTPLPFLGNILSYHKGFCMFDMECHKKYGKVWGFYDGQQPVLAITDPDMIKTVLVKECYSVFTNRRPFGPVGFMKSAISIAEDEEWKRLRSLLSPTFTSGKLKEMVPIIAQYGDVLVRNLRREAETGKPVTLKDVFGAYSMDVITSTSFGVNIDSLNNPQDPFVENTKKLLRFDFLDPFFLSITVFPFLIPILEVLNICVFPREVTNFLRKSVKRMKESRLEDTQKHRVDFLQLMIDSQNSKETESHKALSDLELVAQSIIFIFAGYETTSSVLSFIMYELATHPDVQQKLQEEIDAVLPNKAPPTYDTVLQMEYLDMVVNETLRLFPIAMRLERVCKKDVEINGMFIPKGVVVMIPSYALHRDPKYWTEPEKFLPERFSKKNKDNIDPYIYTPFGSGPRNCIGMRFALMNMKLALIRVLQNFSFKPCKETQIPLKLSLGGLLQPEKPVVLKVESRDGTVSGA
Please go through the items and note down their inhibition at 10 μM.

Solved entries (count: 8):
{"Compound": "C=CC(=O)N1CC2CC(n3nc(-c4ccc5c(c4)CCS5)c4c(N)ncnc43)CC2C1 (stereo not drawn)", "Subject of test": "CYP 3A4 (Homo sapiens, UniProt P08684)", "inhibition at 10 μM": "> 50%"}
{"Compound": "Cc1ccnc(N(C)C(=O)c2ccc(-c3nn(C4CC5CN(C(=O)/C=C/CN(C)C)CC5C4)c4ncnc(N)c34)cc2)c1 (stereo not drawn)", "Subject of test": "CYP 3A4 (Homo sapiens, UniProt P08684)", "inhibition at 10 μM": "> 50%"}
{"Compound": "C=CC(=O)N1CC2CC(n3nc(-c4ccc(NC(=O)c5ccccn5)cc4)c4c(N)ncnc43)CC2C1 (stereo not drawn)", "Subject of test": "CYP 3A4 (Homo sapiens, UniProt P08684)", "inhibition at 10 μM": "> 50%"}
{"Compound": "C=CC(=O)N1CC2CC(n3nc(-c4ccc(Oc5ccccc5)c(OC)c4)c4c(N)ncnc43)CC2C1 (stereo not drawn)", "Subject of test": "CYP 3A4 (Homo sapiens, UniProt P08684)", "inhibition at 10 μM": "> 50%"}
{"Compound": "C=CC(=O)N1CC2CC(n3nc(-c4ccc(NC(=O)c5cnccn5)cc4)c4c(N)ncnc43)CC2C1 (stereo not drawn)", "Subject of test": "CYP 3A4 (Homo sapiens, UniProt P08684)", "inhibition at 10 μM": "< 50%"}
{"Compound": "C=CC(=O)N1CC2CC(n3nc(-c4ccc(Oc5ccccc5)cc4)c4c(N)ncnc43)CC2C1 (stereo not drawn)", "Subject of test": "CYP 3A4 (Homo sapiens, UniProt P08684)", "inhibition at 10 μM": "< 50%"}
{"Compound": "C=CC(=O)N1CC2CC(n3nc(-c4ccc(NC(=O)c5ccccc5)cc4)c4c(N)ncnc43)CC2C1 (stereo not drawn)", "Subject of test": "CYP 3A4 (Homo sapiens, UniProt P08684)", "inhibition at 10 μM": "< 50%"}
{"Compound": "CN(C)C/C=C/C(=O)N1CC2CC(n3nc(-c4ccc(-c5nnc(-c6cnccn6)s5)cc4)c4c(N)ncnc43)CC2C1 (stereo not drawn)", "Subject of test": "CYP 3A4 (Homo sapiens, UniProt P08684)", "inhibition at 10 μM": "> 50%"}

Hi, could you look up inhibition at 10 μM for each item in my list?
1. C=CC(=O)N1CC2CC(n3nc(-c4ccc(Oc5ccccn5)cc4)c4c(N)ncnc43)CC2C1 (stereo not drawn)
2. C=CC(=O)N1CC2CN(c3ccc(Cn4nc(-c5ccc(Oc6ccccc6)cc5)c5c(N)ncnc54)cn3)CC2C1 (stereo not drawn)
3. C=CC(=O)N1CC2CC(n3nc(-c4ccc5ncoc5c4)c4c(N)ncnc43)CC2C1 (stereo not drawn)

A)
1: < 50%; 2: < 50%; 3: > 50%

Hi, could you look up inhibition at 10 μM for each item in my list?
1. C=CC(=O)N1CC2CC(n3nc(-c4ccc(-c5nnc(-c6ccccn6)o5)cc4)c4c(N)ncnc43)CC2C1 (stereo not drawn)
2. C=CC(=O)N1CC2CC(N3C(=O)N(c4ccc(Oc5ccccc5)cc4)C4C(N)=NC=NC43)CC2C1 (stereo not drawn)
3. C=CC(=O)N1CC2CC(n3nc(-c4ccc5ocnc5c4)c4c(N)ncnc43)CC2C1 (stereo not drawn)

A)
< 50%
< 50%
< 50%

Q) Given the entry C=CC(=O)N1CC2CC(n3cc(-c4ccc(Oc5ccccc5)cc4)c4c(N)ncnc43)CC2C1 (stereo not drawn) , report its measured inhibition at 10 μM.
A) < 50%
